- Test system: HOP-62
- TEST_PROTOCOL: NCI tumour cell line growth inhibition, 48 h
Calls of active or inactive are those of the source. No stated cut-off is given here; in the data, active = GI50 up to about 1.1 µM and inactive = higher.
Below: a set of entries, each annotated with reported GI50.

The following compounds have reported results that may help.
S=C(S)N1CCN(c2cccc(Cl)c2)CC1 = 82.8 µM (inactive)
CCOC(=O)[C@H]1O[C@@H]1C(=O)NC(CC(C)C)C(=O)NCCC(C)C (some centres undefined) = > 100 µM (inactive)
CCOC(=O)/C=C(/C(=O)OCC)n1cc(C)c(=O)n(/C(=C/C(=O)OCC)C(=O)OCC)c1=O = 24.8 µM (inactive)
COC1=C(Cl)C(=O)c2c(O)ccc(O)c2C1=O = 0.873 µM (active)

Find the measured GI50 of CC(=O)O[C@H]1[C@H](OC(C)=O)[C@@H](CN=[N+]=[N-])OCO[C@@H]1CN=[N+]=[N-] and report it. > 100 µM (inactive)

Find the measured GI50 of COC(=O)c1cc(C#N)[nH]c1-c1cccs1 and report it. 47.8 µM (inactive)

Find the measured GI50 of O=C1Nc2ccccc2C(=O)O/C(Cc2ccccc2)=N\c2ccccc21 and report it. > 100 µM (inactive)

Find the measured GI50 of CN(C)CCn1c(=O)c2ccc(NCCN3CCNCC3)c3c(=O)c4ccccc4n(c1=O)c23 and report it. 4.06 µM (inactive)

Find the measured GI50 of CCOC(=O)Cc1cnc(NC(NC(=O)CC)(C(F)(F)F)C(F)(F)F)s1 and report it. > 100 µM (inactive)

Find the measured GI50 of S=c1sc2c(s1)SC(c1ccccc1)CS2 (centres undefined) and report it. > 90.8 µM (inactive)

Find the measured GI50 of O=c1c(S(=O)(=O)Oc2ccccc2)coc2cc(F)ccc12 and report it. > 100 µM (inactive)

Find the measured GI50 of C/C(=N\Nc1nc2cccnc2s1)c1ccccn1 and report it. 0.401 µM (active)

Find the measured GI50 of O=C(Nc1cccc([N+](=O)[O-])c1)C(=O)C(C(=O)c1ccccc1F)C1OC(=O)C2C=CC=CC21 (centres undefined) and report it. 50.9 µM (inactive)

Find the measured GI50 of C=CC(C)(C)NC(C(=O)N1CCC[C@H]1c1nc(-c2nc(C(=O)OCC=C(C)C)c(C)o2)c(C)o1)C(C)C (some centres undefined) and report it. > 100 µM (inactive)

Find the measured GI50 of N#CC(c1ccccc1)N(CCc1ccccc1)C(=O)Oc1ccccc1 (centres undefined) and report it. 82 µM (inactive)

Find the measured GI50 of CN(O)C(=O)Cc1ccccc1 and report it. > 100 µM (inactive)

Find the measured GI50 of COc1ccc(/N=C2\C(=N/c3ccc(OC)cc3)N(c3ccc(N(C)C)cc3)C(=S)N2c2ccc(OC)cc2)cc1 and report it. > 64.6 µM (inactive)

Find the measured GI50 of COc1ccc2c(c1OC)C(=O)N/C2=C\c1c(CCN(C)C)cc2c(c1OC)OCO2 and report it. > 100 µM (inactive)

Find the measured GI50 of O=[N+]([O-])c1ccc(Cl)cc1C1SCc2nc3ccccc3n21 (centres undefined) and report it. > 100 µM (inactive)
